Data provenance is ChEMBL document CHEMBL4477193.

Tested on: Klebsiella pneumoniae
PROTOCOL: Antibacterial activity against Klebsiella pneumoniae ATCC 700603 up to 128 ug/ml after 16 to 20 hrs by broth microdilution assay
Type: functional, organism-based
Activity calls are given as the source filed them. The calls are words filed in the database; no cut-off is given here.
MEASURED ATTRIBUTE: Activity

Cc1cc(=O)[nH]c2nc(CC(=O)c3ccccc3)nn12 ... inactive
Cc1cc(=O)n2nc(CC(=O)c3ccccc3)nc2[nH]1 ... inactive
Cc1cc(=O)[nH]c2nnc(CC(=O)c3ccccc3)n12 ... inactive
Cc1cc(=O)n2c(CC(=O)c3ccccc3)nnc2[nH]1 ... inactive
